molecular target: GLP-1R (Homo sapiens); construct: host or cells: GLP-1R CRE-bla CHO-K1 cells; assay: EC20 GLP-1(9-36) PAM cAMP assay: dose response of compound in the presence of fixed concentration of GLP-1(9-36); type: cell-based; details: dose response of compound in presence of fixed concentration of GLP-1(9-36), GLP-1R CRE-bla CHO-K1 cells, read-out: EC20 GLP-1(9-36) PAM EC50
Sequence (P43220 24-463): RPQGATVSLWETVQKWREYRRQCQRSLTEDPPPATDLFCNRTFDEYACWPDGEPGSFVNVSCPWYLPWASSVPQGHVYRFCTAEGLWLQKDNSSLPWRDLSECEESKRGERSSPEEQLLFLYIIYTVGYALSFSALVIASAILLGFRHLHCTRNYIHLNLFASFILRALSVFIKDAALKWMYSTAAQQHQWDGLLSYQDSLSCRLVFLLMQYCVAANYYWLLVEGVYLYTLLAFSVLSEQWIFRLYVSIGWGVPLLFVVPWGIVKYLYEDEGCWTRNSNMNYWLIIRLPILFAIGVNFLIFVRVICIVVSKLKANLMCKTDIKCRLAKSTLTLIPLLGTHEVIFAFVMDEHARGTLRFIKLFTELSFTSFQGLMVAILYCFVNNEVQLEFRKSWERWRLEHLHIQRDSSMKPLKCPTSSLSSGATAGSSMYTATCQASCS
Sequence (P01275 100-127 partner limits assumed): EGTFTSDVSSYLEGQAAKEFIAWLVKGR
EC50 values by entry
property label: EC50

- compound: "CCCCCCCOc1ccc(-c2cnc(-c3ccc(C[C@@H](NC(=O)c4ccc(C(C)(C)C)cc4)C(=O)N[C@H](C)C(=O)O)cc3)nc2)cc1"
  test system: "GLP-1R (Homo sapiens)"
  property label: "EC50"
  recorded value: "< 0.8 µM"
- compound: "CC(C)CCOc1ccc(-c2cnc(-c3ccc(C[C@H](NC(=O)c4ccc(C(C)(C)C)s4)C(=O)N4CC(C(=O)O)C4)cc3)nc2)cc1"
  test system: "GLP-1R (Homo sapiens)"
  property label: "EC50"
  recorded value: "0.8 to 2.5 µM"
- compound: "CCCCCCCOc1ccc(-c2cnc(-c3ccc(C(NC(=O)c4ccc(C(C)(C)C)cc4)C(=O)O)cc3)nc2)cc1 (stereo not drawn)"
  test system: "GLP-1R (Homo sapiens)"
  property label: "EC50"
  recorded value: "2.5 to 5 µM"
- compound: "CCCCCCCOc1ccc(-c2cnc(-c3ccc(C[C@H](NC(=O)c4ccc(C(C)(C)C)s4)C(=O)N4CC(CCN)C4)cc3)nc2)cc1"
  test system: "GLP-1R (Homo sapiens)"
  property label: "EC50"
  recorded value: "0.8 to 2.5 µM"
- compound: "Cc1cc(-c2cnc(-c3ccc(C[C@H](NC(=O)c4ccc(C(C)(C)C)s4)C(=O)N[C@H](C)C(=O)O)cc3)nc2)ccc1-c1ccccc1"
  test system: "GLP-1R (Homo sapiens)"
  property label: "EC50"
  recorded value: "0.8 to 2.5 µM"
- compound: "CCCCCCCOc1ccc(-c2cnc(-c3ccc(C[C@H](NC(=O)c4ccc(C(C)(C)C)s4)C(=O)N[C@H]4C[C@@H](C(=O)O)C4)cc3)nc2)cc1"
  test system: "GLP-1R (Homo sapiens)"
  property label: "EC50"
  recorded value: "0.8 to 2.5 µM"
